Just for reference, PubChem BioAssay (NCI) is where these values come from.

test: NCI Yeast Anticancer Drug Screen. Data for the cln2 rad14 strain (AID 165);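 also: 0% = growth equal to vehicle treated cultures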; settings: S. cerevisiae cln2 rad14 strain, at 50.0 µM, active compounds read high
Compounds without any hit were thinned out: in the full panel of roughly 79,000, 15% have a hit.
Assign rule met to entries whose growth inhibition meets or exceeds -20%; assign rule not met to the rest.

Field: example entries. Status: answers known.
CC1(C(=O)O)C2CCC(C2)C1C(=O)O (stereo unspecified)	rule not met
COc1ccc(Nc2nc(C#N)c(N)s2)cc1	rule met
CN(C)C(N)=Nc1ncnc2ccccc12	rule met

Dear colleague, could you confirm whether O=C(CCCCCCCC(=O)OC(CCC1CCCO1)CCC1CCCO1)OC(CCC1CCCO1)CCC1CCCO1 (stereo unspecified) has growth inhibition at or above -20%? rule met

In plain terms: is recorded growth inhibition at least -20% for Cc1cccc(NC(=O)NC(O)C(Cl)(Cl)Cl)c1 (stereo unspecified) ? rule not met

Quick check: does CCCCCCCCCc1ccc(COCC)cc1 have growth inhibition greater than or equal to -20%? rule met

====

test: NCI Yeast Anticancer Drug Screen. Data for the sgs1 mgt1 strain (AID 161);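 also: 0% = growth of cultures given vehicle only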; conditions: S. cerevisiae sgs1 mgt1 strain, at 50.0 µM, active compounds read high
About 79,000 compounds went through this panel and 15% of them were active in at least one assay; those are over-represented in the sample as a whole.
result_type: growth inhibition (%)
The reply should be a number in %, with the unit left off.

CC(=O)N(C)c1ccc(NC(=O)/C=C/c2ccccc2)cc1	15.7
COc1ccc(C(=O)COC(C)(C)C)cc1	-20
O=C(NCc1cccnc1)Nc1cccc2c(NC(=O)NCc3cccnc3)cccc12	5.8
N#CCCN(C1=NN(C(=O)CC(=O)Nc2cccc(Cl)c2)C(c2ccccc2)C1)c1ccccc1Cl (stereo unspecified)	-16.1
CN(C)c1ccc(Cc2ccc(N(C)C)cc2)cc1	-16.9
CN(C)c1ccc(/C=C(\C#N)C(=O)c2ccccc2)cc1	8.9
CCOCCOCCOc1c(Cl)cc(Cl)cc1Cl	-7.35
C/C=C1\CN2CCc3c([nH]c4ccccc34)C2CC1CCO (stereo unspecified)	-5.4

Suppose we examine the compound OCC1CCN(CCOCc2ccccc2)C1 (stereo unspecified) ; what growth inhibition value has been reported? -2.3

If you can, please state the reported growth inhibition value of Cc1ccc(C2=Nn3c(nc4sc5c(c4c3=O)CCCC5)SC2)cc1 . -39.1

Record request: growth inhibition value, item COC(=O)C1Cc2ccccc2C1=O (stereo unspecified) -14.8

Consider the compound COc1cccc(C(F)(F)F)c1 and give its measured growth inhibition. -10.3

For the compound shown here, COc1cc(-c2c3c(cc4c2OCO4)CC(O)C(C(=O)O)C3)cc(OC)c1OC (stereo unspecified) , give the reported growth inhibition. 0.4

====

assay: NCI Yeast Anticancer Drug Screen. Data for the rad50 strain (AID 155);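 also: 0% = growth of vehicle-only cultures of the same strain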; conditions: S. cerevisiae rad50 strain growth inhibition; at 50.0 µM; active compounds read high
The panel holds about 79,000 compounds, 15% with a hit somewhere; the sample as a whole holds those more often.
result_type: growth inhibition (%)
// note: answer is a bare numeric in %

NC1=C(O)/C(=N/NS(=O)(=O)c2ccccc2)C(c2cccc(Cl)c2)O1 (stereo not drawn)	30.4

Item under review: CC(C)(C)OC(=O)NC(Cc1ccccc1)C(=O)OCN1C(=O)C2C3C=CC(C2C1=O)C1C2C(=O)N(COC(=O)C(Cc4ccccc4)NC(=O)OC(C)(C)C)C(=O)C2C31 (stereo not drawn) . Reported growth inhibition? 26.8

Quick one: growth inhibition of O=C(Nc1nc(C23CC4CC(CC(C4)C2)C3)cs1)c1cc2cc([N+](=O)[O-])ccc2oc1=O ? -12.7

// returns reported growth inhibition for input CC(CCOCC1CO1)OCC1CO1 (stereo not drawn) 13.8

Recorded growth inhibition of C[C@@]12C[C@@H](c3ccccc3O1)N1CCCSC1=N2 , please. 20.2

# growth inhibition lookup, item CCOC(CN=Cc1cccc2ccccc12)OCC -26.4

Give its growth inhibition value. Item: [Cl][Pt+2][Cl].[NH-]C1CCC1[NH-] (stereo not drawn) 4.7

I would be grateful if you could share the reported growth inhibition for N#Cc1ccc(OCCCCCOc2ccc(C#N)cc2I)c(I)c1 . -4.5

Any idea what its growth inhibition is? The compound is CC(=O)C1C(=O)C(=O)N(c2ccccc2C)C1=O (stereo not drawn) -25.6

What does the data say about its growth inhibition? Entry: O=C(CCc1nnc2s/c(=C\c3ccccc3Cl)c(=O)n12)Nc1cc(Cl)ccc1Cl 2.9

Find the recorded growth inhibition belonging to CSc1nc2c(cnn2C)c(=O)[nH]1 and report it. 14.7

Return reported growth inhibition; argument: COc1cc(NS(C)(=O)=O)ccc1Nc1c2ccc(N(C)C)cc2nc2cc(N(C)C)ccc12 29.1

Name the reported growth inhibition value associated with the compound CCC(C)(C)c1ccc([N+](=O)[O-])cc1 18.3

Which measured growth inhibition value corresponds to CCCCOB(OCCCC)OCCCC ? 6.1

Which growth inhibition value is on record for CSc1c(C#N)c(N)nc2c(N=Nc3ccc(Cl)cc3)c(N)nn12 ? 8.75

Requested field: growth inhibition. Item: Cc1cccc(N=C2NC(=O)C(CC(=O)Nc3ccc(Cl)cc3C)S2)c1 (stereo not drawn) 0.05

For the compound shown here, CC(C)/C(Cl)=N\OC(=O)Nc1ccc(C#N)cc1 , give the reported growth inhibition. -22.4

# growth inhibition lookup, item CCOC(=O)Cc1csc2[n+]1C(=O)/C(=C/c1cccc(OC)c1O)S2 45.1

====

assay: NCI Yeast Anticancer Drug Screen. Data for the mlh1 rad18 strain (AID 175); details: S. cerevisiae mlh1 rad18 strain growth inhibition; at 50.0 µM; active compounds read high
Compounds without any hit were thinned out: in the full panel of roughly 79,000, 15% have a hit.
result_type: growth inhibition (%)
Supply the numeric figure in %, leaving out any unit text.

The cases that follow already have their growth inhibition on record.
CC1C(C(=O)NCC(c2ccccc2)c2ccccc2)CC2CCCCN21 (stereo unspecified)	25.9
Cc1nn(C(=O)c2c(-c3ccccc3)noc2C)c(C)c1N=Nc1cc(C(F)(F)F)cc(C(F)(F)F)c1	0.6
O=C(O)CN1CCSc2ccccc2CN(CC(=O)O)CCSc2ccccc2C1	-8
COC1(C)COC(C)(OC)CO1 (stereo unspecified)	18.6
O=C1/C(=C/c2ccc(Cl)cc2)CCC1CCN1CCOCC1 (stereo unspecified)	59.2

Which growth inhibition reading was recorded for the compound C=CCc1cc(C(=O)O)ccc1OC ? -13.9

Please look up its growth inhibition: O=[N+]([O-])c1ccc(N=Nc2c(O)c3ccccc3c3ccccc23)c([N+](=O)[O-])c1 23.2

====

test: NCI Yeast Anticancer Drug Screen. Data for the sgs1 mgt1 strain (AID 161);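 also: 0% = growth of cultures given vehicle only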; details: S. cerevisiae sgs1 mgt1 strain, at 50.0 µM, active compounds read high
Compounds without any hit were thinned out: in the full panel of roughly 79,000, 15% have a hit. Calls of active or inactive are those of the source. No stated cut-off is given here; in the data, active means growth inhibition above about 70%; inactive means the rest.
result_type: growth inhibition

ClC(=Nc1ccccc1)c1cc(Cl)ccn1	8.3% (inactive)
CCC(C)N=C1NS(=O)(=O)c2ccccc21 (centres undefined)	-2.4% (inactive)

Fill in: growth inhibition of CCN(CCO)CC(=O)c1ccc(Cl)c(Cl)c1 is ___ -6.95% (inactive)

# lookup: growth inhibition of CN(/N=C/c1ccnc2ccccc12)c1ccc([N+](=O)[O-])cc1[N+](=O)[O-] -19.5% (inactive)

Name the reported growth inhibition value associated with the molecule c1ccc(C(N=NC(c2ccccc2)c2ccccc2)c2ccccc2)cc1 3.75% (inactive)

Entry Nc1ccc(Sc2nnc(N)s2)cc1 has what growth inhibition? -53.1% (inactive)

Item CNc1nc(SC)nc2[nH]ncc12 has what recorded growth inhibition? 2.45% (inactive)

Using the record for COc1ccc(C(=O)CC(Sc2ccccc2N)c2ccc(OC)cc2)cc1 (centres undefined) , report its growth inhibition. 8.95% (inactive)

Quick one: growth inhibition of N#Cc1cc2ccccc2n(Cc2ccccc2)c1=O ? -9.4% (inactive)

====

The reader will find reported growth inhibition values listed item by item below.
test: NCI Yeast Anticancer Drug Screen. Data for the cln2 rad14 strain (AID 165);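 also: 0% = growth equal to vehicle treated cultures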; settings: S. cerevisiae cln2 rad14 strain, at 50.0 µM, active compounds read high
About 79,000 compounds went through this panel and 15% of them were active in at least one assay; those are over-represented in the sample as a whole. The source made the active and inactive calls. No stated cut-off is given here; in the data, active means growth inhibition above about 70%; inactive means the rest.

COC1/C=C\OC2(C)Oc3c(C)c(O)c4c(O)c(c(/C=N\NC(=O)CC(=O)N/N=C/c5c6c(O)c7c(O)c(C)c8c(c7c5O)C(=O)C(C)(O/C=C/C(OC)C(C)C(OC(C)=O)C(C)C(O)C(C)C(O)C(C)/C=C/C=C(C)C(=O)N6)O8)c(O)c4c3C2=O)NC(=O)/C(C)=C\C=C/C(C)C(O)C(C)C(O)C(C)C(OC(C)=O)C1C (stereo not given)	-5.4% (inactive)

Form field: reported growth inhibition of COc1ccc(CCNC(=O)c2ccc(CSc3ccc(Cl)cc3)o2)cc1OC 50.5% (inactive)

// query growth inhibition value for entry O=C1c2cccc3cc([N+](=O)[O-])cc(c23)C(=O)N1Cc1cccnc1 19% (inactive)

Need growth inhibition of COc1ccc(OCOCOc2ccc(OC)cc2)cc1 , thanks. -285% (inactive)
